system: Nrf2 / ARE-dependent luciferase in AREc32 reporter cell line; experiment: AREc32 luciferase reporter activation (Nrf2 induction); assay type: cell-based, human; details: Homo sapiens, Arec32; Table 3; oleanolic acid derivative analogs; read-out: Avg ARE EC-2X
experimentalReadout: EC (2-fold) (µM)
Answer format: numeric, µM implied, no suffix.

The examples below pair each entry with its known result.
compound	EC (2-fold) / µM
CC1(C)CC[C@]2(CN3NCCC3=O)CC[C@]3(C)[C@H](C(=O)C=C4[C@@]5(C)C=C(C#N)C(=O)C(C)(C)[C@@H]5CC[C@]43C)[C@@H]2C1 [CC54, reference compound]	0.0117
CC1(C)CC[C@]2(CN)CC[C@]3(C)[C@H](C(=O)C=C4[C@@]5(C)C=C(C#N)C(=O)C(C)(C)[C@@H]5CC[C@]43C)[C@@H]2C1 [CC21, reference compound]	0.0158

Now turn to the next compound.
Data request: Look up EC (2-fold) of CC(=O)N(C)C[C@]12CCC(C)(C)C[C@H]1[C@H]1C(=O)C=C3[C@@]4(C)C=C(C#N)C(=O)C(C)(C)[C@@H]4CC[C@@]3(C)[C@]1(C)CC2 [CC35, reference compound] and report it.
Data returned: 0.00681
